Where do these numbers come from? They come from the supplement of paper PMC10065799.

For each entry below, report its phosphorylation enrichment value.
Target: MERTK (UniProt Q12866)
Sequence (Q12866 whole entry, looked up): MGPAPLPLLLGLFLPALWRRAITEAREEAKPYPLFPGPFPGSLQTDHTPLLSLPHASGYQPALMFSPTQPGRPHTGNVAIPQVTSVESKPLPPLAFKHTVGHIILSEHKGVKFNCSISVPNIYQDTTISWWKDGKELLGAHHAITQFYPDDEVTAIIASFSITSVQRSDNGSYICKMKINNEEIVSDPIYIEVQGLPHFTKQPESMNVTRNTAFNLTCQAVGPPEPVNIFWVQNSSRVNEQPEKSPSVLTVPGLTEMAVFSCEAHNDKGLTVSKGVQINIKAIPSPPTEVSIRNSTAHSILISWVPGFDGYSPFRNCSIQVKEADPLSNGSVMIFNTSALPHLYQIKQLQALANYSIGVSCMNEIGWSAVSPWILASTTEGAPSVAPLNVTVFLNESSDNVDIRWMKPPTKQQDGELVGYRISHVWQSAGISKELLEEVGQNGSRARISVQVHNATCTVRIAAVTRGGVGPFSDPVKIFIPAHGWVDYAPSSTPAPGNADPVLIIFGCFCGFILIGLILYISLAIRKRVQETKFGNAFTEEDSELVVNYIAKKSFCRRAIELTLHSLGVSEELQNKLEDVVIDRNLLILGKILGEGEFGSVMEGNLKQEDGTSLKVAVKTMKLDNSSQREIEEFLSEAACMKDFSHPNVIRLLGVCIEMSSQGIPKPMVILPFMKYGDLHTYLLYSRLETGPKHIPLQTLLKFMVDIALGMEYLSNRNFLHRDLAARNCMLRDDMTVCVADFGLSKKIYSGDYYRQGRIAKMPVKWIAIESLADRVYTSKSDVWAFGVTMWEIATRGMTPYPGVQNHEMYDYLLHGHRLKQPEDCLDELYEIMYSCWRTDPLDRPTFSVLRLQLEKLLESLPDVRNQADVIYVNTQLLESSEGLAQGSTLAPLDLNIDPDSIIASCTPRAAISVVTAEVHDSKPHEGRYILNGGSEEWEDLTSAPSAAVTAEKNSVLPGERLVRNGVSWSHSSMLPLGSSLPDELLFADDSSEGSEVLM
Test: phosphorylation enrichment, bacterial display (enrichment ratio); higher = better substrate or ligand; peptides without Tyr show the background;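 note: 11-residue human phosphosite peptides and single-mutation variants displayed on the E. coli surface, counted by deep sequencing, each peptide's frequency after selection divided by its frequency in the unselected input library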;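 note: frequency after pTyr selection over input frequency; kinase dosed for 20-30% of maximal phosphorylation in three min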
Answers are plain numbers.

Answered cases to consult:
                biopolymer_sequence  result_number
0  MNKNAYHNVTT [ST3GAL6_Y306_A311T]          0.412
1   QITQVYGFYHE [PPP2CA_Y127_D131H]           3.47
2     EALDFYGELRT [PTEN_Y155_V158L]          0.453
3          LVRPPYSYSAL [FOXI1_Y126]           2.06
4     DPLLTYWFPPK [LMNA_Y481_R482W]           9.17

Your task in this section: give phosphorylation enrichment for each listed record.
1. TLSGTYQFIIA [FOXL2_Y81_I80T_YF]
2. LDCNEYFRDLN [HPRT1_Y198_Y195C]
3. GFGGGYGGVLT [KRT19_Y65_A60G_YF]

### Response
1. 2.89
2. 0.687
3. 0.381

Your task in this section: give phosphorylation enrichment for each listed record.
1. EVVGRYSVHNA [MLH1_Y183]
2. HMRLRYLAAEE [CEP120_Y884_Q879H]
3. DIRAQYDELAR [KRT18_Y256]

### Response
1: 0.421; 2: 0.452; 3: 0.47

Your task in this section: give phosphorylation enrichment for each listed record.
1. GIVTGYLVLKE [DNMT3B_Y588_A585V]
2. SCRENYSDSEE [LEMD3_Y258]
3. LSDGPYSNPFE [EPOR_Y485_YF]

### Response
1: 0.524; 2: 0.539; 3: 0.534
